Tested on: NCI-H1618 multicellular tumor spheroid viability
Experiment: Anticancer human tumor NCI-H1618 cell line growth inhibition;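 note: spheroids exposed to agents for 7 days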
Conditions: second compound 0.03 µM; first compound 1 µM; stronger effect = lower value
Label 1.0 when viability, T/C is strictly below 2%; otherwise label 0.0.

Here's what some known entries look like.
CC(C)n1c(=O)n(C)c2cnc3cc(F)c(-c4ccc(OCCCN5CCCCC5)nc4)cc3c21 + CC[C@@]1(O)C(=O)OCc2c1cc1n(c2=O)Cc2cc3c(CN(C)C)c(O)ccc3nc2-1
0.0
[2H]c1nc(C)nc([2H])c1-c1cc(NC[C@@H](C)c2cccc3c(C(=O)NC)ccnc23)ncn1 + CC[C@@]1(O)C(=O)OCc2c1cc1n(c2=O)Cc2cc3c(CN(C)C)c(O)ccc3nc2-1
0.0
COc1cc(C)[nH]c(=O)c1CN1CCc2c(Cl)cc(C(OC)C3COC3)c(Cl)c2C1=O (stereo unspecified) + CC[C@@]1(O)C(=O)OCc2c1cc1n(c2=O)Cc2cc3c(CN(C)C)c(O)ccc3nc2-1
0.0
COc1ccc([C@@H](O)c2cc(-c3ncnc4cc(N5CCOCC5)ccc34)c(F)cc2Cl)nn1 + CC[C@@]1(O)C(=O)OCc2c1cc1n(c2=O)Cc2cc3c(CN(C)C)c(O)ccc3nc2-1
0.0

Now consider a different compound.
Request: Hi there! Is viability, T/C for Cc1cc(C)c(CNC(=O)c2cc(-c3ccc(CN4CCOCC4)cc3)cc3c2cnn3C2CCCC2)c(=O)[nH]1 + CC[C@@]1(O)C(=O)OCc2c1cc1n(c2=O)Cc2cc3c(CN(C)C)c(O)ccc3nc2-1 below 2%, do you know?
Result: 1.0
